Origin of the recorded values: PubChem BioAssay

experimental.protocol: 384-well plate pilot, post-Golgi transport modulator project, inhibition of yeast transport mutant growth (AID 636)
protocol.conditions: absorbance 615 nm, about 18 h, hits give high values
Calls of active or inactive are those of the source. Cut-off read from the data, not from the text of the source: active = inhibition above about 31%; inactive = the rest.
observed.property: inhibition

compound | observed.property | result
COc1ccccc1NC(=O)N1c2ccc(F)cc2CCC1C (stereo unspecified) | inhibition | -2.47% (inactive)
CCOc1ccc(C(=O)Nc2cc(C)on2)cc1OCC | inhibition | -4.87% (inactive)
S=C(c1ccc(N2CCOCC2)cc1)N1CCCCC1 | inhibition | -5.48% (inactive)
O=C(O)c1cc(O)c2c(c1)C(=O)c1cccc(O)c1C2=O | inhibition | -4.42% (inactive)
Cc1ccc(-n2ncc3c(=O)n(CC(=O)NCc4ccco4)cnc32)cc1 | inhibition | 1.92% (inactive)
Cc1cc(Oc2ccc(Cl)cc2)nc(-c2ccccc2O)n1 | inhibition | 2.73% (inactive)
COc1ccc(CCNS(=O)(=O)c2ccc3c(c2)CCN3C(=O)CCC(=O)O)cc1OC | inhibition | -2.37% (inactive)
CCc1nc2sc3ccccc3c(=O)c2c(=O)n1Cc1ccco1 | inhibition | -3.77% (inactive)
O=C(NCc1ccccc1)C1CCCN(S(=O)(=O)c2cccnc2)C1 (stereo unspecified) | inhibition | -4.66% (inactive)
COc1cc(C2C3=C(CC(C)(C)CC3=O)Nc3c2c(=O)[nH]c(=O)n3Cc2ccccc2)ccc1O (stereo unspecified) | inhibition | 0.26% (inactive)
C#CC1(O)CC(C)N(C)C(C)C1 (stereo unspecified) | inhibition | -4.55% (inactive)
